tested on: HCC-78; experiment: relative viability (nuclei count vs DMSO), 5 days (fraction); higher = more cells survive; details: first compound 0.3162 µM
Please respond with reported relative viability for every item in the list.
Numbers only.

compound | relative viability
CC(C)Oc1cc(Nc2nc(N[C@@H](C)c3ccc(F)cn3)ncc2Cl)n[nH]1 [AZ23] + C[C@@H](Oc1cc(-c2cnn(C3CCNCC3)c2)cnc1N)c1c(Cl)ccc(F)c1Cl [Crizotinib] (partner 1 µM) | 0.336
CC(C)Oc1cc(Nc2nc(N[C@@H](C)c3ccc(F)cn3)ncc2Cl)n[nH]1 [AZ23] + CC(=O)Nc1cccc(-n2c(=O)n(C3CC3)c(=O)c3c(Nc4ccc(I)cc4F)n(C)c(=O)c(C)c32)c1 [Trametinib] (partner 0.02 µM) | 0.418
CC(C)Oc1cc(Nc2nc(N[C@@H](C)c3ccc(F)cn3)ncc2Cl)n[nH]1 [AZ23] + Nc1ncn([C@H]2C[C@H](O)[C@@H](CO)O2)c(=O)n1 [Decitabine] (partner 2 µM) | 0.728
CC(C)Oc1cc(Nc2nc(N[C@@H](C)c3ccc(F)cn3)ncc2Cl)n[nH]1 [AZ23] + COc1cccc2cc(-c3nc([C@H]4CC[C@H](C(=O)O)CC4)n4ncnc(N)c34)[nH]c12 [OSI-027] (partner 0.5 µM) | 0.322
CC(C)Oc1cc(Nc2nc(N[C@@H](C)c3ccc(F)cn3)ncc2Cl)n[nH]1 [AZ23] + CC(C)C[C@H](NC(=O)[C@H](Cc1ccccc1)NC(=O)c1cnccn1)B(O)O [Bortezomib] (partner 0.002 µM) | 0.335

Please report relative viability for every entry that follows.
1. CC(C)Oc1cc(Nc2nc(N[C@@H](C)c3ccc(F)cn3)ncc2Cl)n[nH]1 [AZ23] + Cc1nc(NC(=O)N2CCC[C@H]2C(N)=O)sc1-c1ccnc(C(C)(C)C(F)(F)F)c1 [Alpelisib] (partner 2 µM)
2. CC(C)Oc1cc(Nc2nc(N[C@@H](C)c3ccc(F)cn3)ncc2Cl)n[nH]1 [AZ23] + COc1cc2c(Oc3ccc(NC(=O)C4(C(=O)Nc5ccc(F)cc5)CC4)cc3F)ccnc2cc1OCCCN1CCOCC1 [Foretinib] (partner 0.25 µM)

RESULT:
[0.306, 0.547]
